System: mouse myeloma MPC-11 (subclone 66.2) cells
Experiment: In vitro antiproliferative activity against mouse myeloma MPC-11 (subclone 66.2) cell line
Type: cell-based
Conditions: solvent not stated, read-out: dose required for 50% inhibition of growth of cells in tissue culture (ED50)
I'd be grateful if you could share measured IC50 for these entries.
Quick note: number first, unit second.

Here is how some molecules turned out for IC50.
MOLECULE	IC50
CCCCCCCCCCCCCCCC(=O)OC[C@H](COP(=O)(O)OP(=O)(O)OC[C@H]1O[C@@H](n2ccc(N)nc2=O)[C@@H](O)[C@@H]1O)OC(=O)CCCCCCCCCCCCCCC [araCDP-L-dipalmitin]	65 µM
CCCCCCCCCCCCCCCCCC(=O)OC[C@H](COP(=O)(O)OP(=O)(O)OC[C@H]1O[C@@H](n2ccc(N)nc2=O)[C@@H](O)[C@@H]1O)OC(=O)CCCCCCCCCCCCCCCCC [araCDP-L-distearin]	195 µM
CCCCCCCCCCCCCC(=O)OC[C@H](COP(=O)(O)OP(=O)(O)OC[C@H]1O[C@@H](n2ccc(N)nc2=O)[C@@H](O)[C@@H]1O)OC(=O)CCCCCCCCCCCCC [araCDP-L-dimyristin]	15 µM

Continue with the next molecule.
# input Any idea what its IC50 is? The molecule is CCCCCCCC/C=C\CCCCCCCC(=O)OC[C@H](COP(=O)(O)OP(=O)(O)OC[C@H]1O[C@@H](n2ccc(N)nc2=O)[C@@H](O)[C@@H]1O)OC(=O)CCCCCCC/C=C\CCCCCCCC [araCDP-L-diolein]
# output 62 µM

====

Test system: mouse myeloma MPC-11 (subclone 66.2) cells
Test: In vitro antiproliferative activity against mouse myeloma MPC-11 (subclone 66.2) cell line
Type: cell-based
Details: samples made up in H2O, read-out: ED50 (the source's name)
ATTRIBUTE MEASURED: pIC50
One number for each entry, as −log10 of the molar value.

> print(dat)
                                smiles.data  reported.result
1  Nc1ccn([C@@H]2O[C@H](CO)[C@@H](O)[C@@H]2O)c(=O)n1             6.00

--- query ---
# input Query: pIC50; subject: CCCCCCCCCCCCCCCC(=O)OC[C@H](COP(=O)(O)OP(=O)(O)OC[C@H]1O[C@@H](n2ccc3c(N)ncnc32)[C@H](O)[C@@H]1O)OC(=O)CCCCCCCCCCCCCCC
# output 5.30
